Biological target: Arginase-2, mitochondrial (Homo sapiens) (UniProt P78540)
Sequence (P78540 whole entry): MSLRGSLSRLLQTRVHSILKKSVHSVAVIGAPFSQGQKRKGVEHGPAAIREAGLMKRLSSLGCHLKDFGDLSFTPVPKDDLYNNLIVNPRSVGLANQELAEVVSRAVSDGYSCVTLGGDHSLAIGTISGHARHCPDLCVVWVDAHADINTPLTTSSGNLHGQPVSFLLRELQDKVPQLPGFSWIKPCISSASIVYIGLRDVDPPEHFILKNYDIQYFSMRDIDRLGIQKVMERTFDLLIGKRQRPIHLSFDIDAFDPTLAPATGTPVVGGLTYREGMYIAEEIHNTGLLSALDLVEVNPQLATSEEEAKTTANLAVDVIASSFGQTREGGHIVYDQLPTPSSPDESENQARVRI
Experiment: in vitro enzyme assay to detect the production of urea directly proportional to the activity of Arginase II; also: in the data most compounds retested in dose-response had high values
Format: functional
Parameters: scale not given: direction of the effect not stated beside the values
Details: 33.3 µM
Consider the following molecules; for each one, report its Percent Effect.
One number for each entry, in %.

>>> reported_result("CC(C)(C)c1nnc(CN2CCCC2c2noc(C3CC3)n2)o1 (stereo unspecified)")
-0.554
>>> reported_result("O=C(Cn1cnnn1)N1CCCCC1Cn1cccn1 (stereo unspecified)")
-3.04
>>> reported_result("O=S(=O)(N(Cc1ccccn1)C1CC1)N1CCCC1c1ccco1 (stereo unspecified)")
-2.77
>>> reported_result("O=C(c1cnco1)N1C[C@@H]2CC[C@H](Oc3ccccc3F)[C@@H]2C1")
-2.09
>>> reported_result("Cc1nnc(Nc2cccc(C3CCN(CCO)CC3)n2)s1")
1.63

Look up Percent Effect for the entries below, preserving their order.
1. CN(C(=O)Cn1nc(-c2ccc(F)cc2)oc1=O)C1CCS(=O)(=O)C1 (stereo unspecified)
2. CC(C)Oc1cccc(C(=O)C2CCCN(C(=O)c3ccccn3)C2)c1 (stereo unspecified)
3. O=C1NCCN1C1CCN(Cc2ccccn2)CC1
4. Cc1nc(CCN(C)C(=O)C2COc3ccccc3C2)no1 (stereo unspecified)
5. CC(C(=O)NCc1ccnc(N2CCN(C)CC2)c1)n1cccn1 (stereo unspecified)
6. CC1CCN(CCNC(=O)c2ccccc2N2CCOCC2)CC1

Reply |
1: 0; 2: -1.91; 3: 1.91; 4: 5.52; 5: 3.06; 6: -2.79

---

Species on record: Homo sapiens
Assay: To identify inhibition of the IFN signalling (Jak-Stat) pathway via expression of an eGFP reporter gene under the control of an IFN-stimulated response element (ISRE) containing MxA promoter.
Assay type: functional
Parameters: scale not given: direction of the effect not stated beside the values
Conditions: 30 µM
measurement.label: Percent Effect (%)
One number for each entry, in %.

Check out these entries, answers already filled in.
>>> reported_result("CCN(C(=O)CS(=O)(=O)Cc1cc(Cl)c2c(c1)OCCCO2)C1CC1")
8.01
>>> reported_result("CCc1ccc(CCC(=O)N2CCOCC2c2ncon2)cc1 (centres undefined)")
13.7
>>> reported_result("O=C(NCCC(=O)N1CCCCCC1)c1c(O)cc(F)cc1F")
6.03

Ask | Suppose we examine the compound `COc1cccc([C@@H]2CN(C(=O)c3ccc(C)cc3O)C[C@H]2C(=O)O)c1` ; what Percent Effect value has been reported?
Reply | 1.8

---

Target: Chromo domain-containing protein 1 (Saccharomyces cerevisiae (strain ATCC 204508 / S288c) (Baker's yeast)) (UniProt P32657)
Sequence (P32657 whole entry, the tested form may be a part): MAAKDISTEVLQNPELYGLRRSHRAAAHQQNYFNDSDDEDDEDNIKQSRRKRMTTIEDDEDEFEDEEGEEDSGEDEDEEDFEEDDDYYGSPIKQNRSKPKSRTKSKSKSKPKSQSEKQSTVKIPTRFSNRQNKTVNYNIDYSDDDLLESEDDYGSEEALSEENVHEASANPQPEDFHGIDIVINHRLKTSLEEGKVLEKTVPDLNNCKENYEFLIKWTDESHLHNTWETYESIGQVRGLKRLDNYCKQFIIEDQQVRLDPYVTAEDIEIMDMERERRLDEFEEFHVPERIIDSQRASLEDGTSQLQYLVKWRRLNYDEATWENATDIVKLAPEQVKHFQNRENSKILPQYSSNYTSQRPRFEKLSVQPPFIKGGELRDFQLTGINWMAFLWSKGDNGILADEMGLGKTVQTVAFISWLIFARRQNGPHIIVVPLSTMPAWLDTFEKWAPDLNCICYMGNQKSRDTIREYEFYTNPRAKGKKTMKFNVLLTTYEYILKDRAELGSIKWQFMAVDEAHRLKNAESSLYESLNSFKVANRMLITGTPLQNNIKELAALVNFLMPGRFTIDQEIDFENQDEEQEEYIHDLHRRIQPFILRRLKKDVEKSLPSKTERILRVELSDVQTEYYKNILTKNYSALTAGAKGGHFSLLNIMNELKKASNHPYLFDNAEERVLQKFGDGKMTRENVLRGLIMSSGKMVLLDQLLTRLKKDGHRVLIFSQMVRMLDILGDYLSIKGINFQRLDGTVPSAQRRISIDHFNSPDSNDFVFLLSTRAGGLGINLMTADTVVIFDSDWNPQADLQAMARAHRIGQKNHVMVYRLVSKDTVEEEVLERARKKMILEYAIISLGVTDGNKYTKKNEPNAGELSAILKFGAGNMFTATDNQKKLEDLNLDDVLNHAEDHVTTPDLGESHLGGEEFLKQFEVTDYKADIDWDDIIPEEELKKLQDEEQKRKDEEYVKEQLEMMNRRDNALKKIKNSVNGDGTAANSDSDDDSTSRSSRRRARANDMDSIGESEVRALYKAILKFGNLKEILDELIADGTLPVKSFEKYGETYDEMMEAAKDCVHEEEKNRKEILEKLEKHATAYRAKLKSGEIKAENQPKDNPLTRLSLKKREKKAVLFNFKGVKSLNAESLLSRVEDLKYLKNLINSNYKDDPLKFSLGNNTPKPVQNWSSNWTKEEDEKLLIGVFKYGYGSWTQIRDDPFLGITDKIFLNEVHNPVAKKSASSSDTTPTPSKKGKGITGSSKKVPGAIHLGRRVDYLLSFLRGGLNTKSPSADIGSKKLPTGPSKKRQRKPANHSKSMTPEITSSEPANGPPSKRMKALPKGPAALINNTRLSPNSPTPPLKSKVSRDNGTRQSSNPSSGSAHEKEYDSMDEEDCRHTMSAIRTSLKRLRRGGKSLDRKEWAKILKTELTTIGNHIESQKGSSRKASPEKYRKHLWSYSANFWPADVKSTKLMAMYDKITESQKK
Assay: ScCHD-1 Enzyme Inhibition Assay; also: in the data most compounds retested in dose-response had high values
Type: functional
Set-up: scale not given: direction of the effect not stated beside the values
Conditions: 30 µM
measurement.label: Percent Effect (%)
Answers are plain numbers, in %.

Check out these entries, answers already filled in.
>>> reported_result("CSc1ncc(C(=O)N2C[C@H]3CC[C@@H]2CN(Cc2ccccc2)C3)cn1")
0.291
>>> reported_result("CCOCCn1nc(C)cc1C(=O)N1CC[C@](C)(O)[C@H](C)C1")
-1.04

Ask | Suppose we examine the molecule `COc1ccc(-c2nnc(SCC(=O)NCC(C)C)[nH]2)c(OC)c1` ; what Percent Effect value has been reported?
Reply | -1.07

Hello, the source for this data is ChEMBL document CHEMBL3988442, in case you need it.
